Multiple publications report pKi for the protein given by its sequence; what follows is a combined list.
Target chain: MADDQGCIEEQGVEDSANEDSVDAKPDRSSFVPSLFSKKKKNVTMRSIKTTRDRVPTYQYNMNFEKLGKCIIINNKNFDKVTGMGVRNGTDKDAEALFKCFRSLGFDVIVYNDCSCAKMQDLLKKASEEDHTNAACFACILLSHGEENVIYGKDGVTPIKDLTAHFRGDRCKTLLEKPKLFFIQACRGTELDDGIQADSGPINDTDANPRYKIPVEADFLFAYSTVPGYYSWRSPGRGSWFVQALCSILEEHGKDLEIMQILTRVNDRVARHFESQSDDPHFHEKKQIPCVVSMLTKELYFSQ
pKi: −log10 of the molar value.
PROPERTY_MEASURED: pKi

Worked examples, 5 compounds total:
[[record]]
compound = "CN(CC1CCCN1S(=O)(=O)c1ccc2c(c1)C(=O)C(=O)N2)c1ccccc1 (centres undefined)"
result_value = 5.00

[[record]]
compound = "O=C1Nc2ccc(S(=O)(=O)N3CCCC3)cc2C1=O"
result_value = 5.52

[[record]]
compound = "CN1C(=O)C(=O)c2cc(S(=O)(=O)N3CCC[C@H]3COc3ccccc3)ccc21"
result_value = 7.33

[[record]]
compound = "O=C[C@H](CC(=O)O)NC(=O)c1ccc(CNS(=O)(=O)c2ccc(O)c(C(=O)O)c2)cc1"
result_value = 6.33

[[record]]
compound = "O=C[C@H](CC(=O)O)NC(=O)c1ccc(CNS(=O)(=O)c2ccc(O)c(C(=O)O)c2)s1"
result_value = 6.92


(P) O=C1Nc2ccc(S(=O)(=O)N3CCC[C@H]3CNc3ccccc3)cc2C1=O
(Q) Cc1cc(CNS(=O)(=O)c2ccc(O)c(C(=O)O)c2)sc1C(=O)N[C@@H](CC(=O)O)C(=O)CSCc1ccccc1Cl
(R) O=C(O)C[C@H](NC(=O)c1cnc(CNS(=O)(=O)c2ccc(O)c(C(=O)O)c2)s1)C(=O)CSCc1ccccc1Cl
(S) CN1C(=O)C(=O)c2cc([N+](=O)[O-])ccc21
Exam item: With regard to pKi, arrange the entries in ascending order, please. Response field: labels, in requested order.
Marked response: Q, S, R, P
